- ASSAY_SYSTEM: human integrin αvβ5 (Homo sapiens, UniProt P06756+P18084)
- Sequence (P06756 31-1048): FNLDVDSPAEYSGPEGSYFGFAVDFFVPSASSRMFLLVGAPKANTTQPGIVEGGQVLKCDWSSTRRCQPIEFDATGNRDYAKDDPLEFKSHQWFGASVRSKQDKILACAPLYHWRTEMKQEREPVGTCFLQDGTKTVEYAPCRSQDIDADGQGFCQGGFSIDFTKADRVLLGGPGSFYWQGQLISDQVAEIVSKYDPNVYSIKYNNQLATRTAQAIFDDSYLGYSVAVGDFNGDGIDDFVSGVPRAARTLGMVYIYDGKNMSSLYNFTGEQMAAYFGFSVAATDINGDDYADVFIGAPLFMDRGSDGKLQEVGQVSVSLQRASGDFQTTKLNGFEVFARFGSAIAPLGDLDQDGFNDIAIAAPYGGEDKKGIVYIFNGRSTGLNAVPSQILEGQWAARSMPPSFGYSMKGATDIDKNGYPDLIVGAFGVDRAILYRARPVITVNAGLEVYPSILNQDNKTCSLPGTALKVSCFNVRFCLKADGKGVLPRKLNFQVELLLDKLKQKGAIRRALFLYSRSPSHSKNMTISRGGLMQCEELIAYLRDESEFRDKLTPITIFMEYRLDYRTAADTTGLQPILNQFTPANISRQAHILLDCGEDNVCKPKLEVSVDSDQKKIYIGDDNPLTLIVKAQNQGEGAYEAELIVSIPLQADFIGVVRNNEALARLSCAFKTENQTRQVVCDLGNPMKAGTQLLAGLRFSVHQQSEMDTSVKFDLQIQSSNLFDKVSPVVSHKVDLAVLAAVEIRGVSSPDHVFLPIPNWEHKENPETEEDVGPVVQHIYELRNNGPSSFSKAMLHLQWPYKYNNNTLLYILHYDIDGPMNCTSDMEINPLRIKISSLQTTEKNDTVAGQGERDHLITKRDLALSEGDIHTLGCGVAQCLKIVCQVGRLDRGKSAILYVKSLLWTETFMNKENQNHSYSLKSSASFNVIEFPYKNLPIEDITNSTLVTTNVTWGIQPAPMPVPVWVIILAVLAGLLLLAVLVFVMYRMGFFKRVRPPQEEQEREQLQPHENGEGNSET
- Sequence (P18084 24-799): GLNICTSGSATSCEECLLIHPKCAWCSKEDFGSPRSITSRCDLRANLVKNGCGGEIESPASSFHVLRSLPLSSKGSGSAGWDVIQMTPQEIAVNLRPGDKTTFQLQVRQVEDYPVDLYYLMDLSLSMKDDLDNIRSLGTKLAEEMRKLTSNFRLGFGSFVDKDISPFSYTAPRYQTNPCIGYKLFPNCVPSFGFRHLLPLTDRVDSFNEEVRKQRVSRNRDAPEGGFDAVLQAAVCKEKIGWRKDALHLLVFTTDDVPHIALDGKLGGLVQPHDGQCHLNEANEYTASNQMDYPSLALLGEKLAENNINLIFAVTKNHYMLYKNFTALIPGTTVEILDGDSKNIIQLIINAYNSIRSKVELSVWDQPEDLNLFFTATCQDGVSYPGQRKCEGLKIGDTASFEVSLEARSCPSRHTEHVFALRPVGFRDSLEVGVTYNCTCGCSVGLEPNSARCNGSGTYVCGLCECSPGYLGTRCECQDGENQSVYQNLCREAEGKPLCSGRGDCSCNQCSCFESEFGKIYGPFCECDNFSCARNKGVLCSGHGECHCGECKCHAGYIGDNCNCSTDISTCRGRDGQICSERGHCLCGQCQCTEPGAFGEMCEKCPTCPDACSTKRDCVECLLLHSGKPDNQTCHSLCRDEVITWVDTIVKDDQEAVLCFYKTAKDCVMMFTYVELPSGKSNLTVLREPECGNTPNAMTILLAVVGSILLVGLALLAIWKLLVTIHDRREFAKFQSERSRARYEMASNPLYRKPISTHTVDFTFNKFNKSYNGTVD
- EXPERIMENT_SUMMARY: Evaluation of integrin binding property (surface plasmon resonance, Biacore 3000, immobilized cyclic peptide)
- CONDITION_CONTEXT: surface plasmon resonance, immobilized cyclic peptide, human integrin αvβ5; read-out: Binding activity (integrin binding property, dissociation constant rank)
pKd: −log10 of the molar value. Starred links: 1 amine or outer side, 2 acyl side, 3 side chain; linkers in the order of their positions; H or OH if unused. Positions of bridges follow the written chain, without caps; N, C: chain ends. Non-standard residues stand in square brackets, D forms with d. Residues, ends and D or L forms follow the SMILES beside them. hCys = N[C@@H](CCS)C(=O)O; Dab = NCC[C@H](N)C(=O)O; X2 = O=C(C[*:1])[*:2]
RESULT_TYPE: pKd

COMPOUND	RESULT_TYPE	RESULT
CC[C@H](C)[C@@H]1NC(=O)[C@@H](NC(=O)[C@H](CCCCN)NC(=O)[C@H](CCCCN)NC(=O)[C@@H](N)CCCCN)CCSCC(=O)NCC[C@@H](C(=O)N[C@@H](C)C(=O)O)NC(=O)[C@H](C)NC(=O)[C@H](Cc2ccccc2)NC(=O)[C@H](CO)NC(=O)[C@H](CC(=O)O)NC(=O)CNC(=O)[C@H](CCCNC(=N)N)NC(=O)[C@@H]2CCCN2C1=O [Cyclic peptide 163, KKK-(Hcy)-IPRGDSFA(Dab(acetyl))A] (H-KKK[hCys]IPRGDSFA[Dab]A-OH; linker 4-13 via X2)	pKd	> 7.30
C[C@@H]1NC(=O)[C@H](Cc2ccccc2)NC(=O)[C@H]([C@@H](C)O)NC(=O)[C@H](CC(=O)O)NC(=O)CNC(=O)[C@H](CCCNC(=N)N)NC(=O)[C@H]([C@@H](C)O)NC(=O)[C@H]([C@@H](C)O)NC(=O)[C@@H](NC(=O)[C@H](CCCCN)NC(=O)[C@H](CCCCN)NC(=O)[C@@H](N)CCCCN)CCSCC(=O)NCC[C@@H](C(=O)O)NC1=O [Cyclic peptide 155, KKK-(Hcy)-TTRGDTFA(Dab(acetyl))] (H-KKK[hCys]TTRGDTFA[Dab]-OH; linker 4-13 via X2)	pKd	> 7.30
CC(C)[C@@H]1NC(=O)[C@@H](NC(=O)[C@H](C)N)CCSCC(=O)NCC[C@@H](C(=O)N[C@@H](C)C(=O)N[C@@H](CCCCN)C(=O)N[C@@H](CCCCN)C(=O)N[C@@H](CCCCN)C(=O)O)NC(=O)[C@H](C)NC(=O)[C@H](Cc2ccccc2)NC(=O)[C@H]([C@@H](C)O)NC(=O)[C@H](CC(=O)O)NC(=O)CNC(=O)[C@H](CCCNC(=N)N)NC(=O)[C@@H]2CCCN2C1=O [Cyclic peptide 109, A-(Hcy)-VPRGDTFA(Dab(acetyl))AKKK] (H-A[hCys]VPRGDTFA[Dab]AKKK-OH; linker 2-11 via X2)	pKd	> 7.30
CC(C)[C@@H]1NC(=O)[C@@H](NC(=O)[C@H](C)NC(=O)[C@H](CCCCN)NC(=O)[C@H](CCCCN)NC(=O)[C@@H](N)CCCCN)CCSCC(=O)NCC[C@@H](C(=O)O)NC(=O)[C@H](C)NC(=O)[C@H](Cc2ccccc2)NC(=O)[C@H]([C@@H](C)O)NC(=O)[C@H](CC(=O)O)NC(=O)CNC(=O)[C@H](CCCNC(=N)N)NC(=O)[C@@H]2CCCN2C1=O [Cyclic peptide 164, KKKA-(Hcy)-VPRGDTFA(Dab(acetyl))] (H-KKKA[hCys]VPRGDTFA[Dab]-OH; linker 5-14 via X2)	pKd	> 7.30
CC(C)[C@@H]1NC(=O)[C@@H](NC(=O)[C@H](CCCCN)NC(=O)[C@H](CCCCN)NC(=O)[C@@H](N)CCCCN)CCSCC(=O)NCC[C@@H](C(=O)O)NC(=O)[C@H](C)NC(=O)[C@H](Cc2ccccc2)NC(=O)[C@H](CO)NC(=O)[C@H](CC(=O)O)NC(=O)CNC(=O)[C@H](CCCNC(=N)N)NC(=O)[C@@H]2CCCN2C1=O [Cyclic peptide 102, KKK-(Hcy)-VPRGDSFA(Dab(acetyl))] (H-KKK[hCys]VPRGDSFA[Dab]-OH; linker 4-13 via X2)	pKd	> 7.30
CC(C)C[C@@H]1NC(=O)[C@@H](NC(=O)[C@H](CCCCN)NC(=O)[C@H](CCCCN)NC(=O)[C@@H](N)CCCCN)CCSCC(=O)NCC[C@@H](C(=O)O)NC(=O)[C@H](C)NC(=O)[C@H](Cc2ccccc2)NC(=O)[C@H]([C@@H](C)O)NC(=O)[C@H](CC(=O)O)NC(=O)CNC(=O)[C@H](CCCNC(=N)N)NC(=O)[C@@H]2CCCN2C1=O [Cyclic peptide 146, KKK-(Hcy)-LPRGDTFA(Dab(acetyl))] (H-KKK[hCys]LPRGDTFA[Dab]-OH; linker 4-13 via X2)	pKd	> 7.30
C[C@@H]1NC(=O)[C@H](Cc2ccccc2)NC(=O)[C@H](CO)NC(=O)[C@H](CC(=O)O)NC(=O)CNC(=O)[C@H](CCCNC(=N)N)NC(=O)[C@H]([C@@H](C)O)NC(=O)[C@H]([C@@H](C)O)NC(=O)[C@@H](NC(=O)[C@H](CCCCN)NC(=O)[C@H](CCCCN)NC(=O)[C@@H](N)CCCCN)CCSCC(=O)NCC[C@@H](C(=O)O)NC1=O [Cyclic peptide 157, KKK-(Hcy)-TTRGDSFA(Dab(acetyl))] (H-KKK[hCys]TTRGDSFA[Dab]-OH; linker 4-13 via X2)	pKd	> 7.30
C[C@@H]1NC(=O)[C@H](Cc2ccccc2)NC(=O)[C@H]([C@@H](C)O)NC(=O)[C@H](CC(=O)O)NC(=O)CNC(=O)[C@H](CCCNC(=N)N)NC(=O)[C@@H]2CCCN2C(=O)[C@H](Cc2ccc(O)cc2)NC(=O)[C@@H](NC(=O)[C@H](CCCCN)NC(=O)[C@H](CCCCN)NC(=O)[C@@H](N)CCCCN)CCSCC(=O)NCC[C@@H](C(=O)O)NC1=O [Cyclic peptide 148, KKK-(Hcy)-YPRGDTFA(Dab(acetyl))] (H-KKK[hCys]YPRGDTFA[Dab]-OH; linker 4-13 via X2)	pKd	> 7.30
